- Assayed System: beta-catenin/TCF4 engagement (Homo sapiens, UniProt P35222)
- Construct: expressed in transfected cells; host or cells: HEK293
- Sequence (P35222 whole entry): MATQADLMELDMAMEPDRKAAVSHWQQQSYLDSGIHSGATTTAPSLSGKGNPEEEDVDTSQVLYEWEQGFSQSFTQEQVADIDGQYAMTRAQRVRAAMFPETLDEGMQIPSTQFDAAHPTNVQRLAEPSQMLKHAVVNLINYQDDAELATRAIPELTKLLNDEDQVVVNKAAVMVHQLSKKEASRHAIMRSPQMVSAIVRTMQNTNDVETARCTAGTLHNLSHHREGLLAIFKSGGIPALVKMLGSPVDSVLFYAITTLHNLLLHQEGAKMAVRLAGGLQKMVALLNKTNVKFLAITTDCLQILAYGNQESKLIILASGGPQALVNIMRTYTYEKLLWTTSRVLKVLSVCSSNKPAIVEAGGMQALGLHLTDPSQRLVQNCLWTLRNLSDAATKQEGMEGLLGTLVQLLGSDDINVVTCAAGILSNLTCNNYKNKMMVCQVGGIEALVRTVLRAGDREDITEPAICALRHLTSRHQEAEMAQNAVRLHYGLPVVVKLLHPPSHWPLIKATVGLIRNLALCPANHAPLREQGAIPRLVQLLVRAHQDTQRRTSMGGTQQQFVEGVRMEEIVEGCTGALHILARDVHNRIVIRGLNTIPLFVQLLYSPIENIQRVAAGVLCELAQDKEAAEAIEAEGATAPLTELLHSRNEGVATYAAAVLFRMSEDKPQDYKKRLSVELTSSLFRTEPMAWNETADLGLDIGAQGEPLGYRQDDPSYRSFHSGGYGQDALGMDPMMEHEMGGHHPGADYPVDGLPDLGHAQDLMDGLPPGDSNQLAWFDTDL
- Assay Overview: Nano-BRET target engagement assay (B-cat-Halo & TCF4-Luc in HEK293 cells)
- Assay type: cell-based
- Condition Description: absolute IC50; read-out: NanoBRET Abs IC50
pIC50: −log10 of the molar value.
pIC50 of 5 or higher: 1.0. Under 5: 0.0.

Could you tell me if the measured pIC50 of CC(=O)N1CCC[C@]12CC=CCCCC1(CCCC=CCCCOC(=O)N3CC[C@@](C(=O)N[C@@H](Cc4ccsc4)C(=O)N[C@@H](Cc4csc5ccccc45)C(=O)N[C@@H](CCC(N)=O)C(N)=O)(C3)NC(=O)[C@H](CC(C)C)NC(=O)[C@H](Cc3ccccc3)NC(=O)[C@H](C)NC(=O)[C@H](C)NC(=O)[C@H](Cc3cccc(C(=O)O)c3)NC(=O)[C@H](CC(=O)O)NC1=O)NC(=O)[C@H](CC(C)C)NC(=O)[C@H](CC(=O)O)NC2=O (stereo partly drawn) reaches 5 or more?
1.0

Is pIC50 for CCNC(=O)CC[C@H](NC(=O)[C@H](Cc1csc2ccccc12)NC(=O)[C@H](Cc1ccsc1)NC(=O)[C@]12CCN(C1)C(=O)OCCCC=CCCCC1(CCCC=CC[C@]3(CCCN3C(C)=O)C(=O)N[C@@H](CC(=O)O)C(=O)N[C@@H](CC(C)(C)C)C(=O)N1)C(=O)N[C@@H](CC(=O)O)C(=O)N[C@@H](CN(CC(=O)O)CC(F)(F)F)C(=O)N[C@@H](C)C(=O)N[C@@H](C)C(=O)N[C@@H](Cc1ccccc1)C(=O)N[C@@H](CC(C)C)C(=O)N2)C(=O)N[C@@H](C)C(N)=O (stereo partly drawn) at or above 5?
1.0

Could you please find out whether CC(=O)N1CCC[C@]12CC=CCCCC1(CCCC=CCCCOC(=O)N3CC[C@@](C(=O)N[C@@H](Cc4ccccc4Cl)C(=O)N[C@@H](Cc4csc5ccccc45)C(=O)N[C@@H](CCCN4CCOCC4)C(N)=O)(C3)NC(=O)[C@H]([C@@H](C)O)NC(=O)[C@H](Cc3ccccc3)NC(=O)[C@H](C)NC(=O)[C@H](C)NC(=O)[C@H](CN(CC(=O)O)CC(F)(F)F)NC(=O)[C@H](CC(=O)O)NC1=O)NC(=O)[C@H](CC(C)(C)C)NC(=O)[C@H](CC(=O)O)NC2=O (stereo partly drawn) has pIC50 that meets 5 or exceeds it?
1.0

Hi, just wondering whether CC(=O)N1CCC[C@]12CC=CCCCC1(CCCC=CCCCOC(=O)N3CC[C@@](C(=O)N[C@@H](Cc4ccsc4)C(=O)N[C@@H](Cc4csc5ccccc45)C(=O)N[C@@H](CCC(N)=O)C(N)=O)(C3)NC(=O)[C@H](CC(N)=O)NC(=O)[C@H](Cc3ccccc3)NC(=O)[C@H](C)NC(=O)[C@H](C)NC(=O)[C@H](CCC(N)=O)NC(=O)[C@H](CC(N)=O)NC1=O)NC(=O)[C@H](CC(C)(C)C)NC(=O)[C@H](CC(=O)O)NC2=O (stereo partly drawn) [I-1567] shows pIC50 of 5 or higher.
0.0

Could you verify whether the entry CC(=O)N1CCC[C@]12CC=CCCCC1(CCCC=CCCCOC(=O)N3CC[C@@](C(=O)N[C@@H](Cc4ccccc4C(F)(F)F)C(=O)N[C@@H](Cc4ccc5c(c4)CCC5)C(=O)N[C@@H](C)C(N)=O)(C3)NC(=O)[C@H](CC(C)C)NC(=O)[C@H](Cc3ccccc3)NC(=O)[C@H](C)NC(=O)[C@H](CCC(N)=O)NC(=O)[C@H](Cc3cccc(C(=O)O)c3)NC(=O)[C@H](CC(=O)O)NC1=O)NC(=O)[C@H](CC(C)(C)C)NC(=O)[C@H](CC(=O)O)NC2=O (stereo partly drawn) shows pIC50 of no less than 5?
1.0

Exam item: decide whether the reported pIC50 for CC(=O)N1CCC[C@]12CC=CCCCC1(CCCC=CCCCOC(=O)N3CC[C@@](C(=O)N[C@@H](Cc4ccsc4)C(=O)N[C@@H](Cc4csc5ccccc45)C(=O)N[C@@H](CCC(N)=O)C(N)=O)(C3)NC(=O)[C@H](CC(C)C)NC(=O)[C@H](Cc3ccccc3)NC(=O)[C@H](C)NC(=O)[C@H](C)NC(=O)[C@H](CN(CC(=O)O)C(=O)CCCN(C)C)NC(=O)[C@H](CC(=O)O)NC1=O)NC(=O)[C@H](CC(C)(C)C)NC(=O)[C@H](CC(=O)O)NC2=O (stereo partly drawn) is at least 5.
0.0

Is reported pIC50 greater than or equal to 5 here: CC(=O)N1CCC[C@]12CC=CCCCC1(CCCC=CCCCOC(=O)N3CC[C@@](C(=O)N[C@@H](Cc4ccsc4)C(=O)N[C@@H](Cc4csc5ccccc45)C(=O)N[C@@H](CC(N)=O)C(=O)N[C@@H](C)C(=O)NC(C)(C)C(=O)N[C@@H](C)C(N)=O)(C3)NC(=O)[C@H](CC(C)C)NC(=O)[C@H](Cc3ccccc3)NC(=O)[C@H](C)NC(=O)[C@H](C)NC(=O)[C@H](Cc3cccc(C(=O)O)c3)NC(=O)[C@H](CC(=O)O)NC1=O)NC(=O)[C@H](CC(C)(C)C)NC(=O)[C@H](CC(=O)O)NC2=O (stereo partly drawn)
1.0

Could you tell me if the measured pIC50 of C[C@@H]1NC(=O)[C@H](C)NC(=O)[C@H](CC(=O)O)NC(=O)[C@H](CC(=O)O)NC(=O)C2(CCCC=CCCCCCC[C@@](C)(C(=O)N[C@@H](Cc3ccccc3Cl)C(=O)N[C@@H](Cc3csc4ccccc34)C(=O)N[C@@H](CCC(N)=O)C(N)=O)NC(=O)[C@H]([C@@H](C)O)NC(=O)[C@H](Cc3ccccc3)NC1=O)CCCC=CC[C@]1(CCCN1S(C)(=O)=O)C(=O)N[C@@H](CC(=O)O)C(=O)N[C@@H](CC(C)(C)C)C(=O)N2 (stereo partly drawn) reaches 5 or more?
0.0

# bool: pIC50 of CC(=O)N1CCC[C@]12CC=CCCCC1(CCCC=CCCCOC(=O)N3CC[C@@](C(=O)N[C@@H](Cc4ccsc4)C(=O)N[C@@H](Cc4csc5ccccc45)C(=O)N[C@@H](CCC(N)=O)C(N)=O)(C3)NC(=O)[C@H](CC(N)=O)NC(=O)[C@H](Cc3ccccc3)NC(=O)[C@H](C)NC(=O)[C@H](C)NC(=O)[C@H](CN(CCCC(F)(F)F)CC(=O)O)NC(=O)[C@H](CC(=O)O)NC1=O)NC(=O)[C@H](CC(C)(C)C)NC(=O)[C@H](CC(=O)O)NC2=O (stereo partly drawn) >= 5
0.0
